# TARGET OF ASSAY: T1, Human FGF19 (human, UniProt O95750 25-216)
# T1 construct: Recombinant soluble protein; also called huFGF19; Fibroblast growth factor 19
# T1 sequence (O95750 25-216 limits assumed): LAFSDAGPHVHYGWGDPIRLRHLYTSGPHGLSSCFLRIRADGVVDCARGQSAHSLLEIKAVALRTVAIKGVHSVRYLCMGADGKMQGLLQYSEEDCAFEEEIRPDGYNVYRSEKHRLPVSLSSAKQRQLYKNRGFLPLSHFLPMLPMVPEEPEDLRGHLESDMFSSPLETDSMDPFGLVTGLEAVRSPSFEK
# ASSAY DETAILS: SPR (BIAcore 2000), IgG on chip, soluble human FGF19
Listed next: entries and their corresponding KD (fold weaker), against chimeric 1A6.
Number only, in fold; omit the unit.

BINDER	UNIT ABBREVIATION	MEASURED RESULT
hu1A6.S34T (HVR-L1) (antibody, V domains shown) VH: EVQLVESGGGLVQPGGSLRLSCAASGFSLTTYGVHWVRQAPGKGLEWVGVIWPGGGTDYNAAFISRFTISRDNSKNTLYLQMNSLRAEDTAVYYCVRKEYANLYAMDYWGQGTLVTVSS VL: DIQMTQSPSSLSASVGDRVTITCKASQDINSFLTWYQQKPGKAPKLLIYRANRLVDGVPSRFSGSGSGTDFTLTISSLQPEDFATYYCLQYDEFPLTFGQGTKVEIKR	fold	14

Query: Dear colleague, I am looking for the recorded KD (fold weaker), against chimeric 1A6 of the following binder: 1A6-graft (direct HVR-graft of 1A6), expressed as IgG (antibody, V domains shown, Tested as IgG produced in 293 cells; also called 1A6 grafted antibody; 1A6 HVR graft) VH: EVQLVESGGGLVQPGGSLRLSCAASGFSLTTYGVHWVRQAPGKGLEWVGVIWPGGGTDYNAAFISRFTISRDNSKNTLYLQMNSLRAEDTAVYYCVRKEYANLYAMDYWGQGTLVTVSS VL: DIQMTQSPSSLSASVGDRVTITCKASQDINSFLSWYQQKPGKAPKLLIYRANRLVDGVPSRFSGSGSGTDFTLTISSLQPEDFATYYCLQYDEFPLTFGQGTKVEIKR
Response: 58.1
